target_or_system: human mAChR M4 (Homo sapiens, UniProt P08173)
Sequence (P08173 whole entry): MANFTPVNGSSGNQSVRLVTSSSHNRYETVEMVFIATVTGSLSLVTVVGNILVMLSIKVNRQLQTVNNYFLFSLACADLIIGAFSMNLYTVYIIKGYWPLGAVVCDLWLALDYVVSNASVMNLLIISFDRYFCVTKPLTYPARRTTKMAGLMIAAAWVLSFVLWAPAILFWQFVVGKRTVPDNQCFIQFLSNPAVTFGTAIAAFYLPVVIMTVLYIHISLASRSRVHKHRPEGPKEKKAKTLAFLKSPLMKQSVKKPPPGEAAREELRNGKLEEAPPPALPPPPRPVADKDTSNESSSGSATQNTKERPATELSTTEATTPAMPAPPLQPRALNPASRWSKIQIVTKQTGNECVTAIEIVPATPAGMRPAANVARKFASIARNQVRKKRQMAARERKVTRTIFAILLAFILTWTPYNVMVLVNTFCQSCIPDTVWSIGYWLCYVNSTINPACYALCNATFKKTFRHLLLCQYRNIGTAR
method_description: mAChR M4 cell-based functional assay (calcium flux), human M4
assay_conditions: Table 10; % ACh maximum at 30 μM
assay_endpoint: Emax (%)
Give bare numbers, in %.

Past entries and their recorded results:
compound="Cc1nnc2sc3c(NCc4ccc(C(=O)NC(C)C)cc4)ncnc3c2c1C [Compound 155]" assay_endpoint=Emax numeric_result=88.1
compound="Cc1nnc2oc3c(NCc4ccc(C5(O)CCC5)cc4)ncnc3c2c1C [Compound 298]" assay_endpoint=Emax numeric_result=58.2
compound="Cc1nnc2sc3c(N4CCC(C(C)(C)O)C4)ncnc3c2c1C (stereo not drawn) [Compound 171]" assay_endpoint=Emax numeric_result=30.9
compound="COc1cc(F)c(CNc2ncnc3c2sc2nnc(C)c(C)c23)c(F)c1 [Compound 121]" assay_endpoint=Emax numeric_result=100
compound="Cc1c(Cl)cnc2sc3c(N4CCC4)ncnc3c12 [Compound 221]" assay_endpoint=Emax numeric_result=40.6

Please give Emax for each item listed below.
1. Cc1nnc2sc3c(NCc4ccc(C(=O)N5CC[C@@H](F)C5)cc4)ncnc3c2c1C [Compound 129]
2. Cc1nnc2sc3c(N4CC(Nc5ccnc(F)c5F)C4)ncnc3c2c1C [Compound 161, trifluoroacetic acid]
3. Cc1c(Cl)nnc2sc3c(NCc4ccc(C(C)(C)O)cc4)ncnc3c12 [Compound 213]

1. 90.6
2. 80.1
3. 97.3

Entry source: patent US10239887B2
